Settings: in acetone, 283.15 K
measured attribute: solubility (mole fraction)
Numbers only.

IN: Item CCOC(=O)C1=C(C)NC(C)=C(C(=O)OCC)C1 : provide solubility (mole fraction)
OUT: 0.00225

====

Settings: in acetone, 318.15 K
measured attribute: solubility (mole fraction)
Numbers only.

IN: Answer with the recorded solubility (mole fraction) for the compound listed here: CCOC(=O)C1=C(C)NC(C)=C(C(=O)OCC)C1
OUT: 0.0152

====

Conditions: in n-butanol, 288.15 K
measured attribute: solubility (mole fraction)
Answers are plain numbers.

IN: Identify measured solubility (mole fraction) corresponding to CCOC(=O)C1=C(C)NC(C)=C(C(=O)OCC)C1
OUT: 0.00154

====

Conditions: in isopropanol, 272.15 K
measured attribute: solubility (mole fraction)
One number for each entry.

IN: Look up and report measured solubility (mole fraction) for this entry: CCOC(=O)C1=C(C)NC(C)=C(C(=O)OCC)C1
OUT: 0.000462

====

Conditions: in ethanol, 272.15 K
measured attribute: solubility (mole fraction)

IN: Give a short answer stating reported solubility (mole fraction) for CCOC(=O)C1=C(C)NC(C)=C(C(=O)OCC)C1 .
OUT: 0.000414

====

Details: in methanol, 283.15 K
measured attribute: solubility (mole fraction)
One number for each entry.

IN: Name the recorded solubility (mole fraction) of the molecule listed here: CCOC(=O)C1=C(C)NC(C)=C(C(=O)OCC)C1
OUT: 0.000486

====

Conditions: in 2-butanone, 288.15 K
measured attribute: solubility (mole fraction)
Numbers only.

IN: Please report solubility (mole fraction) for the following molecule: CCOC(=O)C1=C(C)NC(C)=C(C(=O)OCC)C1
OUT: 0.00525

====

Details: in n-propanol, 308.05 K
measured attribute: solubility (mole fraction)
One number for each entry.

IN: Give recorded solubility (mole fraction). CCOC(=O)C1=C(C)NC(C)=C(C(=O)OCC)C1
OUT: 0.0038

====

Conditions: in methanol, 272.15 K
measured attribute: solubility (mole fraction)
Give bare numbers.

IN: # return recorded solubility (mole fraction) for input CCOC(=O)C1=C(C)NC(C)=C(C(=O)OCC)C1
OUT: 0.000246

====

Conditions: in n-pentanol, 293.05 K
measured attribute: solubility (mole fraction)
Give bare numbers.

IN: Quickly give me recorded solubility (mole fraction) for CCOC(=O)C1=C(C)NC(C)=C(C(=O)OCC)C1
OUT: 0.00221

====

Conditions: in 2-pentanone, 308.25 K
measured attribute: solubility (mole fraction)
Give bare numbers.

IN: Indicate its recorded solubility (mole fraction); the compound in question is CCOC(=O)C1=C(C)NC(C)=C(C(=O)OCC)C1
OUT: 0.0155

====

Conditions: in 2-butanone, 283.15 K
measured attribute: solubility (mole fraction)
One number for each entry.

IN: For the compound CCOC(=O)C1=C(C)NC(C)=C(C(=O)OCC)C1 , give its reported solubility (mole fraction).
OUT: 0.00382

====

Conditions: in ethyl formate, 293.15 K
measured attribute: solubility (mole fraction)

IN: Give me measured solubility (mole fraction), please, for this compound: CCOC(=O)C1=C(C)NC(C)=C(C(=O)OCC)C1
OUT: 0.00266

====

Settings: in n-butanol, 318.15 K
measured attribute: solubility (mole fraction)
Answers are plain numbers.

IN: Input CCOC(=O)C1=C(C)NC(C)=C(C(=O)OCC)C1 , output reported solubility (mole fraction).
OUT: 0.00691

====

Settings: in isopropanol, 298.15 K
measured attribute: solubility (mole fraction)
Numbers only.

IN: Give recorded solubility (mole fraction). CCOC(=O)C1=C(C)NC(C)=C(C(=O)OCC)C1
OUT: 0.00208

====

Settings: in toluene, 293.15 K
measured attribute: solubility (mole fraction)

IN: # return recorded solubility (mole fraction) for input CCOC(=O)C1=C(C)NC(C)=C(C(=O)OCC)C1
OUT: 0.000618

====

Details: in 2-pentanone, 288.15 K
measured attribute: solubility (mole fraction)
One number for each entry.

IN: Answer with reported solubility (mole fraction) of CCOC(=O)C1=C(C)NC(C)=C(C(=O)OCC)C1
OUT: 0.00485

====

Conditions: in acetone, 323.65 K
measured attribute: solubility (mole fraction)

IN: Indicate its recorded solubility (mole fraction); the compound in question is CCOC(=O)C1=C(C)NC(C)=C(C(=O)OCC)C1
OUT: 0.02

====

Settings: in isopentanol, 288.15 K
measured attribute: solubility (mole fraction)
One number for each entry.

IN: Fill in solubility (mole fraction) for record CCOC(=O)C1=C(C)NC(C)=C(C(=O)OCC)C1
OUT: 0.00189

====

Conditions: in n-pentanol, 298.15 K
measured attribute: solubility (mole fraction)

IN: Supply reported solubility (mole fraction) belonging to this compound: CCOC(=O)C1=C(C)NC(C)=C(C(=O)OCC)C1
OUT: 0.00292

====

Conditions: in acetonitrile, 308.25 K
measured attribute: solubility (mole fraction)
Answers are plain numbers.

IN: Please list solubility (mole fraction) recorded for the compound CCOC(=O)C1=C(C)NC(C)=C(C(=O)OCC)C1
OUT: 0.00224

====

Details: in ethanol, 293.05 K
measured attribute: solubility (mole fraction)
Numbers only.

IN: Tell me its solubility (mole fraction) given CCOC(=O)C1=C(C)NC(C)=C(C(=O)OCC)C1 as the entry.
OUT: 0.00137

====

Details: in methyl acetate, 303.35 K
measured attribute: solubility (mole fraction)
Numbers only.

IN: Please indicate solubility (mole fraction) recorded for CCOC(=O)C1=C(C)NC(C)=C(C(=O)OCC)C1
OUT: 0.00541

====

Conditions: in n-propanol, 323.15 K
measured attribute: solubility (mole fraction)
Answers are plain numbers.

IN: State its solubility (mole fraction) for this compound: CCOC(=O)C1=C(C)NC(C)=C(C(=O)OCC)C1
OUT: 0.00773

====

Conditions: in isopentanol, 323.15 K
measured attribute: solubility (mole fraction)

IN: Identify solubility (mole fraction) associated with the molecule CCOC(=O)C1=C(C)NC(C)=C(C(=O)OCC)C1
OUT: 0.0126

====

Details: in isopentanol, 277.95 K
measured attribute: solubility (mole fraction)
Give bare numbers.

IN: Provide solubility (mole fraction) value for the following compound: CCOC(=O)C1=C(C)NC(C)=C(C(=O)OCC)C1
OUT: 0.000996

====

Settings: in isopentanol, 303.15 K
measured attribute: solubility (mole fraction)
One number for each entry.

IN: Please supply the value of reported solubility (mole fraction) for the item CCOC(=O)C1=C(C)NC(C)=C(C(=O)OCC)C1
OUT: 0.0045

====

Settings: in ethyl acetate, 323.65 K
measured attribute: solubility (mole fraction)
Answers are plain numbers.

IN: Give solubility (mole fraction) for CCOC(=O)C1=C(C)NC(C)=C(C(=O)OCC)C1
OUT: 0.0198

====

Settings: in n-pentanol, 277.95 K
measured attribute: solubility (mole fraction)

IN: Complete the entry with solubility (mole fraction) for CCOC(=O)C1=C(C)NC(C)=C(C(=O)OCC)C1
OUT: 0.000925

====

Conditions: in n-propanol, 312.35 K
measured attribute: solubility (mole fraction)

IN: Identify measured solubility (mole fraction) associated with CCOC(=O)C1=C(C)NC(C)=C(C(=O)OCC)C1
OUT: 0.00468

====

Conditions: in isobutanol, 298.15 K
measured attribute: solubility (mole fraction)
One number for each entry.

IN: Retrieve solubility (mole fraction) measured for CCOC(=O)C1=C(C)NC(C)=C(C(=O)OCC)C1 and print it.
OUT: 0.00386

====

Conditions: in methanol, 303.15 K
measured attribute: solubility (mole fraction)
Give bare numbers.

IN: Kindly indicate its recorded solubility (mole fraction). Item: CCOC(=O)C1=C(C)NC(C)=C(C(=O)OCC)C1
OUT: 0.0015

====

Settings: in 2-butanone, 298.15 K
measured attribute: solubility (mole fraction)
Answers are plain numbers.

IN: For the compound CCOC(=O)C1=C(C)NC(C)=C(C(=O)OCC)C1 , give its reported solubility (mole fraction).
OUT: 0.00965

====

Details: in isopropanol, 303.15 K
measured attribute: solubility (mole fraction)

IN: Report measured solubility (mole fraction); entry is CCOC(=O)C1=C(C)NC(C)=C(C(=O)OCC)C1
OUT: 0.00269

====

Settings: in isobutanol, 318.15 K
measured attribute: solubility (mole fraction)

IN: Consider the compound CCOC(=O)C1=C(C)NC(C)=C(C(=O)OCC)C1 and give its recorded solubility (mole fraction).
OUT: 0.0117

====

Conditions: in 2-butanone, 323.65 K
measured attribute: solubility (mole fraction)
Numbers only.

IN: Hello, please tell me recorded solubility (mole fraction) for this one: CCOC(=O)C1=C(C)NC(C)=C(C(=O)OCC)C1
OUT: 0.038

====

Conditions: in isopentanol, 308.05 K
measured attribute: solubility (mole fraction)
Give bare numbers.

IN: Answer with the recorded solubility (mole fraction) of CCOC(=O)C1=C(C)NC(C)=C(C(=O)OCC)C1 only.
OUT: 0.00587

====

Conditions: in methyl acetate, 313.15 K
measured attribute: solubility (mole fraction)
Answers are plain numbers.

IN: Give a short answer stating reported solubility (mole fraction) for CCOC(=O)C1=C(C)NC(C)=C(C(=O)OCC)C1 .
OUT: 0.00848
